assay: in vivo; conditions: human, plasma, iv
Property: clearance

{"columns": ["Compound", "Observed result"],
 "data": [
  ["O=C(CCCN1CCC(O)(c2ccc(Cl)cc2)CC1)c1ccc(F)cc1 [Haloperidol, haloperidol]", "667 mL/min"],
  ["CN1CC2c3ccccc3Oc3ccc(Cl)cc3C2C1 (stereo not drawn) [Asenapine, asenapine]", "867 mL/min"],
  ["O=C1CCc2ccc(OCCCCN3CCN(c4cccc(Cl)c4Cl)CC3)cc2N1 [Aripiprazole, aripiprazole]", "39.6 mL/min"]
]}
